Value source: patent US8426407B2

system: NIH3T3 fibroblasts; assay: Inhibition test of compounds on NIH3T3 fibroblasts (MTT method); type: cell-based; details: 72 hours after administration; MTT; relative to fluorofenidone on a certain plate
propertyMeasured: IC50 (µM)
Give bare numbers, in µM.

Problem: Write IC50 of O=c1ccc(C(F)(F)F)cn1-c1ccc(NCCCN2CCCCC2)cc1Cl [Compound 3] ; system used: NIH3T3 fibroblasts
Solution: 65
